system.under.test: Muscarinic acetylcholine receptor M2 (Homo sapiens, UniProt P08172)
Sequence (P08172 whole entry): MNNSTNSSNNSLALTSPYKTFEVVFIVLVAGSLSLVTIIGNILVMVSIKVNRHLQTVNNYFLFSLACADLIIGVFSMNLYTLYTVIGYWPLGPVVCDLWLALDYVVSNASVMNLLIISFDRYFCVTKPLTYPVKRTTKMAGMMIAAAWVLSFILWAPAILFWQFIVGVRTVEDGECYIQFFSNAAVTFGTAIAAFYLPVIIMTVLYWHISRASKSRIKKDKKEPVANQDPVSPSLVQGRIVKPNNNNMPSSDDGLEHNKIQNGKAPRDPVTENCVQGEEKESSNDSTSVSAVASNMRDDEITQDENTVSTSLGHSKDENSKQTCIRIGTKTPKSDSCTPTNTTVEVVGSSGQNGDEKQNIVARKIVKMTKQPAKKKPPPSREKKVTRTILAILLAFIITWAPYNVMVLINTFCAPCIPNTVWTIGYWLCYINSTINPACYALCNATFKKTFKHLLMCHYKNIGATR
protocol.description: Agonist activity at human Muscarinic acetylcholine receptor M2 expressed in HEK cells co-expressing Glosensor construct assessed as decrease in isoproterenol-induced cAMP accumulation incubated for 7 mins in presence of isoproterenol by Glosensor cAMP reagent/plate reader based luminescence assay
Type: cell-based
conditions: read-out: EC50
readout.label: EC50 (nM)

compound | readout.label | unit.info | qualifier | reported.value
CCOC(=O)N1CCC2(CC(N3C[C@@H]4[C@H](C3)[C@@H]4c3nccn3-c3ccccc3)C2)C1 (some centres not stated) | EC50 | nM | = | 5160
COc1cccnc1C1CCN(C2CC3(CCN(c4cnccn4)C3)C2)CC1 (configuration not stated) | EC50 | nM | > | 7350
c1ccc(-n2ccnc2[C@@H]2[C@@H]3CN(C4CC5(CCN(c6cnccn6)C5)C4)C[C@@H]32)cc1 (some centres not stated) | EC50 | nM | = | 420
COc1cccnc1C1CCN(CC2CCN(c3cnccn3)CC2)CC1 | EC50 | nM | > | 8830
COc1cccnc1C1CCN(C2CCCN(c3cnccn3)CC2)CC1 (configuration not stated) | EC50 | nM | = | 250
CCOC(=O)N1CCCC(N2CCC(c3ncccc3OC)CC2)CC1 (configuration not stated) | EC50 | nM | = | 2520
CCOC(=O)N1CCC2(CC(N3CCC(c4ncccc4OC)CC3)C2)C1 (configuration not stated) | EC50 | nM | > | 10000
